- Tested on: HeLa KRas G12C cells
- Experiment Description: Cellular growth inhibition assay (CTG), HeLa KRas G12C cells
- Type: cell-based
- Assay Setup: Homo sapiens, CellTiter-Glo 2.0, day-5
Experimental Endpoint: GI50

Compound | System | GI50
C=C(F)C(=O)N1CCN(c2nc(OC[C@@H]3CCCN3CCCCCCCCc3cc(Cl)cc(NC(=O)NCc4ccc5c(c4)CN(C4CCC(=O)NC4=O)C5=O)c3)nc3c2CCN(c2cccc4cccc(Cl)c24)C3)C[C@@H]1CC#N (some centres unmarked) [Compound I-1] | HeLa KRas G12C cells | 1 to 3 µM

Then this compound:
What value of GI50 has been recorded for this entry: C=CC(=O)N1CCN(c2nc(NCCOCCOCCOCCOCCOCCOCCc3cc(Cl)cc(NC(=O)NCc4ccc5c(c4)CN(C4CCC(=O)NC4=O)C5=O)c3)nc3c(F)c(-c4cc(O)cc5ccccc45)c(Cl)cc23)CC1 (centres unmarked) [Compound I-7]
> 10 µM

###

- System: U937 cells
- Experiment Description: Cellular growth inhibition assay (CTG), U937 cells
- Format: cell-based
- Assay Setup: Homo sapiens, U-937, CellTiter-Glo 2.0, day-5
Experimental Endpoint: GI50

The following molecules have reported results that may help.
Molecule | GI50
Nc1ncnc2c1c(-c1ccc(Oc3ccccc3)cc1)nn2[C@@H]1CCCN(C(=O)/C=C/COCCOCCOCCOCCOCCOCCOCCOc2cc(Cl)cc(NC(=O)NCc3ccc4c(c3)CN(C3CCC(=O)NC3=O)C4=O)c2)C1 (stereo partly drawn) | 0.1 to 1 µM
CN(C/C=C/C(=O)N1CCC([C@@H]2CCNc3c(C(N)=O)c(-c4ccc(Oc5ccccc5)cc4)nn32)CC1)CCOCCOCCOCCOCCOCCOCCOCCOCCCCCCCCc1cc(Cl)cc(NC(=O)NCc2ccc3c(c2)CN(C2CCC(=O)NC2=O)C3=O)c1 (stereo partly drawn) | < 0.1 µM
CN(C/C=C/C(=O)N1CCC([C@@H]2CCNc3c(C(N)=O)c(-c4ccc(Oc5ccccc5)cc4)nn32)CC1)CCOCCOCCOCCOCCCCCCCCc1cc(Cl)cc(NC(=O)NCc2ccc3c(c2)CN(C2CCC(=O)NC2=O)C3=O)c1 (stereo partly drawn) | < 0.1 µM
CN(C/C=C/C(=O)N1CCC[C@@H](n2nc(-c3ccc(Oc4ccccc4)cc3)c3c(N)ncnc32)C1)CCOCCOCCOCCOCCOCCOCCOCCOCCCCCCCCc1cc(Cl)cc(NC(=O)NCc2ccc3c(c2)CN(C2CCC(=O)NC2=O)C3=O)c1 (stereo partly drawn) | < 0.1 µM
Nc1ncnc2c1c(-c1ccc(Oc3ccccc3)cc1)nn2[C@@H]1CCCN(C(=O)/C=C/COCCOCCOCCOCCOCCOCCOCCOCCOCCOCCOCCOc2cc(Cl)cc(NC(=O)NCc3ccc4c(c3)CN(C3CCC(=O)NC3=O)C4=O)c2)C1 (stereo partly drawn) | 1 to 5 µM

What value of GI50 has been recorded for this entry: Nc1ncnc2c1c(-c1ccc(Oc3ccccc3)cc1)nn2[C@@H]1CCCN(C(=O)/C=C/COCCOCCOCCOCCOCCOCCOCCOCCOCCOc2cc(Cl)cc(NC(=O)NCc3ccc4c(c3)CN(C3CCC(=O)NC3=O)C4=O)c2)C1 (stereo partly drawn)
1 to 5 µM

What value of GI50 has been recorded for this entry: CN(C/C=C/C(=O)N1CCC[C@@H](n2nc(-c3ccc(Oc4ccccc4)cc3)c3c(N)ncnc32)C1)CCOCCOCCOCCOCCOCCOCCCCCCCCc1cc(Cl)cc(NC(=O)NCc2ccc3c(c2)CN(C2CCC(=O)NC2=O)C3=O)c1 (stereo partly drawn)
< 0.1 µM

What value of GI50 has been recorded for this entry: CN(C/C=C/C(=O)N1CCC[C@@H](n2nc(-c3ccc(Oc4ccccc4)cc3)c3c(N)ncnc32)C1)CCOCCOCCOCCOCCCCCCCCc1cc(Cl)cc(NC(=O)NCc2ccc3c(c2)CN(C2CCC(=O)NC2=O)C3=O)c1 (stereo partly drawn)
< 0.1 µM

What value of GI50 has been recorded for this entry: CN(C/C=C/C(=O)N1CCC([C@@H]2CCNc3c(C(N)=O)c(-c4ccc(Oc5ccccc5)cc4)nn32)CC1)CCOCCOCCOCCOCCOCCOCCCCCCCCc1cc(Cl)cc(NC(=O)NCc2ccc3c(c2)CN(C2CCC(=O)NC2=O)C3=O)c1 (stereo partly drawn)
< 0.1 µM

###

- System: GSPT1 (Homo sapiens, UniProt P15170+Q96SW2)
- Construct: host or cells: HEK293 LgBiT cell line
- Sequence (P15170 whole entry): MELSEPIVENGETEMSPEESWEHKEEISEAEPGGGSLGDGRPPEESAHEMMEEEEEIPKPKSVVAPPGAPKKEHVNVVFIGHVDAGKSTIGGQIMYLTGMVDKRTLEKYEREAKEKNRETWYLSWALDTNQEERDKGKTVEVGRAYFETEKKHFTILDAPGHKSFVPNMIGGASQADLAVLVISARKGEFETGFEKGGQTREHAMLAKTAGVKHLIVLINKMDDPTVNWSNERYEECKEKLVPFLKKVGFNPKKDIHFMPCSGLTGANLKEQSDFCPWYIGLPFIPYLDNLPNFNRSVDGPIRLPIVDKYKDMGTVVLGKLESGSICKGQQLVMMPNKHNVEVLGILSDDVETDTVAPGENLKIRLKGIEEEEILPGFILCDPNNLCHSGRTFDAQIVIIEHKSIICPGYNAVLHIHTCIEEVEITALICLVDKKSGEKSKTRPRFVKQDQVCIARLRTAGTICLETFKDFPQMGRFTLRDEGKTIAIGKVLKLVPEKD
- Sequence (Q96SW2 whole entry): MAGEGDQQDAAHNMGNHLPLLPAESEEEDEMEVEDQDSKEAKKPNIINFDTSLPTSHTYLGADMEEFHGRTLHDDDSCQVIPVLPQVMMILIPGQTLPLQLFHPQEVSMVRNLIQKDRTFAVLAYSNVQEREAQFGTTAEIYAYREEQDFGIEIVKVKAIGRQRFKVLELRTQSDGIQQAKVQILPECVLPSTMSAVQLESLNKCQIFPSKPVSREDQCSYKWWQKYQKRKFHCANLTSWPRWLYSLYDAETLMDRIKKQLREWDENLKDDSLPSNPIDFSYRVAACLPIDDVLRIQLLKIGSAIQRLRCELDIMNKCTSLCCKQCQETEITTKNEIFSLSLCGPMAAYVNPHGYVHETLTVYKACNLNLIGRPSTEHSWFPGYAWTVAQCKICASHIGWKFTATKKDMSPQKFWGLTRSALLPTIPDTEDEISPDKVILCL
- Sequence (Q16531 whole entry partner): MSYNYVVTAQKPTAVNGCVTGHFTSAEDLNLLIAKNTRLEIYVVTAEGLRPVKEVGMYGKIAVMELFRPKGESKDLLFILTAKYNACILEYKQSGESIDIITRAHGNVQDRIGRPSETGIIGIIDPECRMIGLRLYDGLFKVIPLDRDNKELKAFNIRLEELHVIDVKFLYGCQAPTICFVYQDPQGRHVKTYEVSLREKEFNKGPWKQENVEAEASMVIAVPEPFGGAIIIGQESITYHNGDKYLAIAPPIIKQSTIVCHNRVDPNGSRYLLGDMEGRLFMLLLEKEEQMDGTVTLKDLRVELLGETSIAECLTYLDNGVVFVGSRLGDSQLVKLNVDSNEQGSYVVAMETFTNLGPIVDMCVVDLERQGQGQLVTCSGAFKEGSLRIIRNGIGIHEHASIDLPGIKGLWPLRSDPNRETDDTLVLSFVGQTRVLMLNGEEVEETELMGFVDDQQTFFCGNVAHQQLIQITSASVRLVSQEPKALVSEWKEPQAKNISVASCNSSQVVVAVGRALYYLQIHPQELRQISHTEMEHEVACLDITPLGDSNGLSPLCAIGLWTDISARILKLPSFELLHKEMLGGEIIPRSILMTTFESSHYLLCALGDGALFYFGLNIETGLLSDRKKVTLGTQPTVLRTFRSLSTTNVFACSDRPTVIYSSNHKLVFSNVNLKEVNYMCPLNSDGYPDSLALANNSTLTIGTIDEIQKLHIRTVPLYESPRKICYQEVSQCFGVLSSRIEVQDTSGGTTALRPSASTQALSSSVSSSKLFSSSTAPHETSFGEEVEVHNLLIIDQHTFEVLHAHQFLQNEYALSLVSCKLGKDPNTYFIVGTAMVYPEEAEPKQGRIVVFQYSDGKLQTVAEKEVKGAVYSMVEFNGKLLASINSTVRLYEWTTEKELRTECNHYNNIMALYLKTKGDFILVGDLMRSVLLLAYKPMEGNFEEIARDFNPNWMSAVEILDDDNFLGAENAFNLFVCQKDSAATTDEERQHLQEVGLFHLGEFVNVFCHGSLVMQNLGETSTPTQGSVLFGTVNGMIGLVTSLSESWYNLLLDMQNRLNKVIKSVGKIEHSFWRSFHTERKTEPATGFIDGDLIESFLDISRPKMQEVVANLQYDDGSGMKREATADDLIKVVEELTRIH
- Experiment Description: GSPT1 HiBit degradation assay
- Format: cell-based
- Assay Setup: Table 3; HEK293 LgBiT cells expressing GSPT1_HiBiT, luminescence after 6 hours
Experimental Endpoint: DC50

The following compounds have reported results that may help.
Compound | DC50
COc1cc(N2CCN(C(=O)COCCOCCOCCOCCOCCOCCOCCOCCOc3cc(Cl)cc(NC(=O)NCc4ccc5c(c4)CN(C4CCC(=O)NC4=O)C5=O)c3)CC2)ccc1Nc1ncc(Cl)c(Nc2ccccc2P(C)(C)=O)n1 (stereo not shown) | > 10 µM
CN(C/C=C/C(=O)N1CCC[C@@H](n2nc(-c3ccc(Oc4ccccc4)cc3)c3c(N)ncnc32)C1)CCOCCOCCOCCOCCOCCOCCOCCOCCCCCCCCc1cc(Cl)cc(NC(=O)NCc2ccc3c(c2)CN(C2CCC(=O)NC2=O)C3=O)c1 (stereo partly shown) | < 0.25 µM

What value of DC50 has been recorded for this entry: C=CC(=O)Nc1cc(Nc2nccc(-c3cn(C)c4ccccc34)n2)c(OC)cc1N(C)CCN(C)CCOCCOCCOCCOCCOCCOCCOc1cc(Cl)cc(NC(=O)NCc2ccc3c(c2)CN(C2CCC(=O)NC2=O)C3=O)c1 (stereo not shown)
5 to 10 µM

What value of DC50 has been recorded for this entry: C=C(F)C(=O)N1CCN(c2nc(OC[C@@H]3CCCN3CCOCCOCCOCCOCCOCCOCCOCCOCCOCCOCCOCCOCCCCCCCCCCCCCCc3cc(Cl)cc(NC(=O)NCc4ccc5c(c4)CN(C4CCC(=O)NC4=O)C5=O)c3)nc3c2CCN(c2cccc4cccc(Cl)c24)C3)C[C@@H]1CC#N (stereo partly shown)
< 0.25 µM

###

- Tested on: 293 mutant EGFR_T790M L858R Cells
- Experiment Description: Cellular growth inhibition assay (CTG), 293 mutant EGFR_T790M L858R cells
- Type: cell-based
- Assay Setup: 293 mutant EGFR T790M L858R cells, CellTiter-Glo 2.0, day-5
We begin with a simple list: items and their reported GI50.

The following compounds have reported results that may help.
Compound | System | Experimental Endpoint | Recorded Value
COc1cc(N(C)CCN(C)C)c(NC(=O)/C=C/CN(C)CCOCCOCCOCCOCCOCCCCCc2cc(Cl)cc(NC(=O)NCc3ccc4c(c3)CN(C3CCC(=O)NC3=O)C4=O)c2)cc1Nc1nccc(-c2cn(C)c3ccccc23)n1 (stereo not drawn) [Compound I-151] | 293 mutant EGFR_T790M L858R Cells | GI50 | 100 to 1000 nM
C=CC(=O)NC1CN(c2nc(Nc3cn(CCOCCOCCOCCOCCOCCCCCc4cc(Cl)cc(NC(=O)NCc5ccc6c(c5)CN(C5CCC(=O)NC5=O)C6=O)c4)nc3OC)c3ncn(C)c3n2)C[C@H]1F (stereo partly drawn) [Compound I-155] | 293 mutant EGFR_T790M L858R Cells | GI50 | 100 to 1000 nM
C=CC(=O)Nc1cc(Nc2nccc(-c3cn(C)c4ccccc34)n2)c(OC)cc1N(C)CCN(C)CCOCCOCCOCCOCCOCCOCCOCCOCCOCCOCCOCCCCCc1cc(Cl)cc(NC(=O)NCc2ccc3c(c2)CN(C2CCC(=O)NC2=O)C3=O)c1 (stereo not drawn) [Compound I-161] | 293 mutant EGFR_T790M L858R Cells | GI50 | 1000 to 5000 nM
COc1nn(C)cc1Nc1nc(N2CC(NC(=O)/C=C/CN(C)CCOCCOCCOCCCCCc3cc(Cl)cc(NC(=O)NCc4ccc5c(c4)CN(C4CCC(=O)NC4=O)C5=O)c3)[C@H](F)C2)nc2c1ncn2C (stereo partly drawn) [Compound I-150] | 293 mutant EGFR_T790M L858R Cells | GI50 | 1000 to 5000 nM
C=CC(=O)NC1CN(c2nc(Nc3cn(CCOCCOCCOCCOCCOCCOCCOCCCCCc4cc(Cl)cc(NC(=O)NCc5ccc6c(c5)CN(C5CCC(=O)NC5=O)C6=O)c4)nc3OC)c3ncn(C)c3n2)C[C@H]1F (stereo partly drawn) [Compound I-130] | 293 mutant EGFR_T790M L858R Cells | GI50 | 100 to 1000 nM

Then this compound:
What value of GI50 has been recorded for this entry: COc1nn(C)cc1Nc1nc(N2CC(NC(=O)/C=C/CN(C)CCOCCOCCOCCOCCOCCCCCc3cc(Cl)cc(NC(=O)NCc4ccc5c(c4)CN(C4CCC(=O)NC4=O)C5=O)c3)[C@H](F)C2)nc2c1ncn2C (stereo partly drawn) [Compound I-159]
1000 to 5000 nM

meta.source: patent US20240238424A1
